Where do these numbers come from? They come from ChEMBL document CHEMBL3808303.

procedure summary: Selectivity ratio of IC50 for HEK293 cells to IC50 for human HeLa cells
Assay type: ADME, cell-based
settings: HEK293 cells versus HeLa cells, read-out: Ratio IC50
Mark label 1 only for selectivity ratio values smaller than 6; exact matches and larger values are label 0.

Record excerpt, results attached:
COc1cc(OC)c(C(=O)/C=C/c2ccccc2)c(OC)c1: label 1
O=C(/C=C/c1cc(F)ccc1F)c1c(O)cc(O)cc1O: label 0
COc1cc(OC)c(C(=O)/C=C/c2cc(F)ccc2F)c(OC)c1: label 0
O=C(CCc1cc(F)ccc1F)c1c(O)cc(O)cc1O: label 1
COc1cc(OC)c(CCCc2cccc(F)c2)c(OC)c1: label 0

Next, consider the following compound.
Determine if COc1cc(OC)c(CCCc2ccccc2F)c(OC)c1 shows selectivity ratio strictly lower than 6.
label 0
